experiment: Solubility of drug substance samples in biorelevant media and sodium acetate buffer (Experiment 8b); format: physicochemical; settings: 50 mM sodium acetate buffer, pH 4.5, aqueous buffer, thermodynamic from solid, 50 mM Sodium Acetate Buffer pH 4.5, 4 Hours
reported endpoint: solubility at 4 h
// return the numeric value with its unit appended

Read off the recorded solubility at 4 h for CCCC[C@]1(CC)CS(=O)(=O)c2cc(CNC(CC(=O)O)CC(=O)O)c(OC)cc2[C@@H](c2ccccc2)N1 [Form I]
280 µg/mL

---

assay: Solubility of drug substance samples in biorelevant media and sodium acetate buffer (Experiment 8b); format: physicochemical; conditions: Simulated Gastric Fluid (SGF), pH 1.6, simulated gastric fluid, thermodynamic from solid, SGF pH 1.6, 24 Hours
reported endpoint: solubility at 24 h (µg/mL)
Could you give me the number in µg/mL? Just the number is fine.

Please look at this molecule and report its solubility at 24 h: CCCC[C@]1(CC)CS(=O)(=O)c2cc(CNC(CC(=O)O)CC(=O)O)c(OC)cc2[C@@H](c2ccccc2)N1 [Form I]
7910

---

assay: Solubility of linerixibat drug substance over pH 1.2-6.8 at 37±1° C. (Experiment 8a); type: physicochemical; conditions: Britton Robinson buffer, 37 °C, pH 3.5, aqueous buffer, thermodynamic from solid, nominal pH 3.5, BR buffer, 1-hr timepoint
reported endpoint: solubility at 1 h (µg/mL)
The reply should be a number in µg/mL, with the unit left off.

# return recorded solubility at 1 h for entry CCCC[C@]1(CC)CS(=O)(=O)c2cc(CNC(CC(=O)O)CC(=O)O)c(OC)cc2[C@@H](c2ccccc2)N1 [Form I]
99

---

assay: Solubility of linerixibat drug substance over pH 1.2-6.8 at 37±1° C. (Experiment 8a); type: physicochemical; settings: acetate buffer, 37 °C, pH 4.5, aqueous buffer, thermodynamic from solid, nominal pH 4.5, Acetate buffer, 24-hr timepoint
reported endpoint: solubility at 24 h
Record the result as a number with its unit.

Identify measured solubility at 24 h associated with CCCC[C@]1(CC)CS(=O)(=O)c2cc(CNC(CC(=O)O)CC(=O)O)c(OC)cc2[C@@H](c2ccccc2)N1 [Form I]
293 µg/mL

---

test: Solubility of linerixibat drug substance over pH 1.2-6.8 at 37±1° C. (Experiment 8a); type: physicochemical; settings: Britton Robinson buffer, 37 °C, pH 3.8, aqueous buffer, thermodynamic from solid, nominal pH 3.8, BR buffer, 4-hr timepoint
reported endpoint: solubility at 4 h

Supply reported solubility at 4 h belonging to this compound: CCCC[C@]1(CC)CS(=O)(=O)c2cc(CNC(CC(=O)O)CC(=O)O)c(OC)cc2[C@@H](c2ccccc2)N1 [Form I]
113 µg/mL

---

Assay: Solubility of linerixibat drug substance over pH 1.2-6.8 at 37±1° C. (Experiment 8a)
Type: physicochemical
Details: Britton Robinson buffer, 37 °C, pH 4, aqueous buffer, thermodynamic from solid, nominal pH 4.0, BR buffer, 1-hr timepoint
Procedure: The solubility of linerixibat drug substance, in respect of Form I and Form III, was determined over the pH range of 1.2-6.8 at 37±1° C. Eight pH values within this range, including buffers at pH 1.2, 4.5 and 6.8 were evaluated. The therapeutic dose for linerixibat is 40 mg. • SGF=simulated gastric fluid • BR=Britton Robinson
reported endpoint: solubility at 1 h (µg/mL)
Note: unit µg/mL is implicit; provide only the numeric part.

Return the recorded solubility at 1 h value; entry: CCCC[C@]1(CC)CS(=O)(=O)c2cc(CNC(CC(=O)O)CC(=O)O)c(OC)cc2[C@@H](c2ccccc2)N1 [Form I]
118
